# System: G. lamblia trophozoites (WBC6)
# Assay Comment: Growth inhibition of G. lamblia trophozoites (WBC6), resazurin viability read-out
# Type: cell-based, Giardia lamblia
# Condition Context: Giardia duodenalis; text value in pM; read-out: anti-Giardia IC50 on growth inhibition
Endpoint: IC50

**Q:** Which IC50 value belongs to COc1ccc(C2=NN(C3CCN(c4ccc5ncc([N+](=O)[O-])n5n4)CC3)C(=O)CC2)cc1OC [Compound 18] ?
**A:** ~200 pM

====

Reported values of IC50 for individual entries
# Tested on: Leishmania infantum
# Assay Comment: Growth inhibition of L. infantum
# Format: cell-based
# Condition Context: mean ± standard deviation, n ≥ 2

Molecule	Tested Target	Result
O=[N+]([O-])c1cnc2ccc(N3CCC(Cc4ccccc4)CC3)nn12 [Compound 28]	Leishmania infantum	> 64 µM

**Q:** Which IC50 value belongs to CCCCCCCCCCCCCCCCOP(=O)([O-])OCC[N+](C)(C)C [Miltefosine, miltefosine, reference compound] ?
**A:** 10.3 µM

**Q:** Which IC50 value belongs to COc1ccc(CN(C)c2ccc3ncc([N+](=O)[O-])n3n2)cc1 [Compound 30] ?
**A:** 46.9 µM

**Q:** Which IC50 value belongs to O=C(c1ccccc1)C1CCN(c2ccc3ncc([N+](=O)[O-])n3n2)CC1 [Compound 29] ?
**A:** 11.7 µM

**Q:** Which IC50 value belongs to COc1ccc(C2=NN(C3CCN(c4ccc5ncc([N+](=O)[O-])n5n4)CC3)C(=O)[C@H]3CC=CC[C@@H]23)cc1OCc1cccc([N+](=O)[O-])c1 (relative stereo) [Compound 13] ?
**A:** 32.5 µM

**Q:** Which IC50 value belongs to COc1ccc(C2=NN(C3CCN(c4ccc5ncc([N+](=O)[O-])n5n4)CC3)C(=O)[C@H]3CC=CC[C@@H]23)cc1OCc1ccccn1 (relative stereo) [Compound 17] ?
**A:** 11.8 µM

**Q:** Which IC50 value belongs to CN1CCN(c2ccc3ncc([N+](=O)[O-])n3n2)CC1 [Compound 24] ?
**A:** > 64 µM

**Q:** Which IC50 value belongs to COc1ccc(C2=NN(C3CCN(c4ccc5ncc([N+](=O)[O-])n5n4)CC3)C(=O)[C@H]3CC=CC[C@@H]23)cc1OC1CCCC1 (relative stereo) [Compound 12] ?
**A:** 25.9 µM

====

# Tested Target: GlPDE (aa588-1371) (Giardia lamblia)
# Assay Comment: GlPDE activity inhibition
# Type: biochemical
# Condition Context: mean ± standard deviation, n ≥ 2
Endpoint: Ki

Field: example entries. Status: answers known.
Compound	Result
COc1ccc(C2=NN(C3CCN(c4ccc5ncc([N+](=O)[O-])n5n4)CC3)C(=O)CC2)cc1Cl [Compound 19]	> 1000 µM
COc1ccc(C2=NN(C3CCN(c4ccc5ncc([N+](=O)[O-])n5n4)CC3)C(=O)[C@@H]3CC=CC[C@H]23)cc1OC [Compound 11]	0.5 µM
COc1ccc(C2=NN(C3CCN(c4ccc5ncc([N+](=O)[O-])n5n4)CC3)C(=O)CC2)cc1OC [Compound 18]	> 10 µM

Field: next compound
**Q:** Which Ki value belongs to COc1ccc(C2=NN(C3CCN(c4ccc5nccn5n4)CC3)C(=O)CC2)cc1OC [Compound 20] ?
**A:** > 1000 µM

====

Reported Ki for target or system hPDE4B (Homo sapiens), by entry.
The reply should be a number in nM, with the unit left off.

Compound String	Ki / nM
COc1ccc(C2=NN(C3CCN(c4ccc5nccn5n4)CC3)C(=O)CC2)cc1OC	5

Field: next compound
**Q:** Which Ki value belongs to "COc1ccc(C2=NN(C3CCN(c4ccc5ncc([N+](=O)[O-])n5n4)CC3)C(=O)CC2)cc1OC" ?
**A:** 3.2

====

# Test system: Leishmania infantum
# Assay Comment: Growth inhibition of L. infantum
# Type: cell-based
# Condition Context: mean ± standard deviation, n ≥ 2
Reported values of IC50 for individual entries
The reply should be a number in µM, with the unit left off.

Field: example entries. Status: answers known.
Compound	Tested Target	Endpoint	Numeric Value
COc1ccc(C2=NN(C3CCN(c4ccc5ncc([N+](=O)[O-])n5n4)CC3)C(=O)[C@H]3CC=CC[C@@H]23)cc1OCc1cccnc1 (relative stereo)	Leishmania infantum	IC50	8.1
COc1cccc(COc2cc(C3=NN(C4CCN(c5ccc6ncc([N+](=O)[O-])n6n5)CC4)C(=O)[C@H]4CC=CC[C@@H]34)ccc2OC)c1 (relative stereo)	Leishmania infantum	IC50	32.5
COc1ccc(C2=NN(C3CCN(c4ccc5ncc([N+](=O)[O-])n5n4)CC3)C(=O)CC2)cc1OC	Leishmania infantum	IC50	26.4

Field: next compound
**Q:** Which IC50 value belongs to COc1ccccc1COc1cc(C2=NN(C3CCN(c4ccc5ncc([N+](=O)[O-])n5n4)CC3)C(=O)[C@H]3CC=CC[C@@H]23)ccc1OC (relative stereo) ?
**A:** 30.6

====

# Tested on: MRC-5 (human lung fibroblasts MRC-5SV40)
# Assay Comment: Cytotoxicity on MRC-5 cells
# Type: cell-based
# Condition Context: MRC5, mean ± standard deviation, n ≥ 2, read-out: IC50 (nM) MRC-5
Endpoint: IC50

Compound	IC50
COc1ccc(C2=NN(C3CCN(c4ccc5ncc([N+](=O)[O-])n5n4)CC3)C(=O)[C@H]3CC=CC[C@@H]23)cc1OCc1cccnc1 (relative stereo) [Compound 15]	15000 nM
COc1ccc(CN(C)c2ccc3ncc([N+](=O)[O-])n3n2)cc1 [Compound 30]	> 64000 nM
O=[N+]([O-])c1cnc2ccc(N3CCN(c4ccccc4)CC3)nn12 [Compound 27]	> 64000 nM
COc1ccc(C2=NN(C3CCN(c4ccc5nccn5n4)CC3)C(=O)CC2)cc1OC [Compound 20]	> 64000 nM
COc1ccc(C2=NN(C3CCN(c4ccc5ncc([N+](=O)[O-])n5n4)CC3)C(=O)CC2)cc1Cl [Compound 19]	> 64000 nM
COc1ccccc1COc1cc(C2=NN(C3CCN(c4ccc5ncc([N+](=O)[O-])n5n4)CC3)C(=O)[C@H]3CC=CC[C@@H]23)ccc1OC (relative stereo) [Compound 16]	49000 nM
COc1ccc(C2=NN(C3CCN(c4ccc5ncc([N+](=O)[O-])n5n4)CC3)C(=O)[C@@H]3CC=CC[C@H]23)cc1OC [Compound 11]	> 64000 nM
COc1ccc(C2=NN(C3CCN(c4ccc5ncc([N+](=O)[O-])n5n4)CC3)C(=O)CC2)cc1OC [Compound 18]	> 64000 nM
O=[N+]([O-])c1cnc2ccc(N3CCC(c4ccccc4)CC3)nn12 [Compound 26]	> 64000 nM
O=[N+]([O-])c1cnc2ccc(N3CCCCC3)nn12 [Compound 23]	28100 nM

**Q:** Which IC50 value belongs to COc1ccc(C2=NN(C3CCN(c4ccc5ncc([N+](=O)[O-])n5n4)CC3)C(=O)[C@H]3CC=CC[C@@H]23)cc1OC1CCCC1 (relative stereo) [Compound 12] ?
**A:** > 64000 nM

**Q:** Which IC50 value belongs to c1cn2nc(N3CCCCC3)ccc2n1 [Compound 31] ?
**A:** > 64000 nM

**Q:** Which IC50 value belongs to COc1ccc(C2=NN(C3CCN(c4ccc5ncc([N+](=O)[O-])n5n4)CC3)C(=O)[C@H]3CC=CC[C@@H]23)cc1OCc1ccccn1 (relative stereo) [Compound 17] ?
**A:** > 64000 nM

**Q:** Which IC50 value belongs to O=[N+]([O-])c1cnc2ccc(N3CCC(Cc4ccccc4)CC3)nn12 [Compound 28] ?
**A:** 7960 nM

**Q:** Which IC50 value belongs to O=[N+]([O-])c1cnc2ccc(N3CCC(N4CCCC4)CC3)nn12 [Compound 25] ?
**A:** > 64000 nM

====

# Tested on: Leishmania infantum
# Assay Comment: Growth inhibition of L. infantum
# Assay type: cell-based
# Condition Context: mean ± standard deviation, n ≥ 2
Endpoint: IC50 (µM)
The reply should be a number in µM, with the unit left off.

**Q:** Form: Entry = "COc1ccc(C2=NN(C3CCN(c4ccc5ncc([N+](=O)[O-])n5n4)CC3)C(=O)CC2)cc1Cl" | System = Leishmania infantum | IC50 = ____
**A:** 28.9

**Q:** Form: Entry = "O=[N+]([O-])c1cnc2ccc(N3CCN(c4ccccc4)CC3)nn12" | System = Leishmania infantum | IC50 = ____
**A:** 35.3

**Q:** Form: Entry = "COc1ccc(C2=NN(C3CCN(c4ccc5ncc([N+](=O)[O-])n5n4)CC3)C(=O)[C@@H]3CC=CC[C@H]23)cc1OC" | System = Leishmania infantum | IC50 = ____
**A:** 27.4

====

# Test system: Leishmania infantum
# Assay Comment: Growth inhibition of L. infantum
# Assay type: cell-based
# Condition Context: mean ± standard deviation, n ≥ 2
Endpoint: IC50

Compound	Result
O=[N+]([O-])c1cnc2ccc(N3CCCC3)nn12 [Compound 22]	> 64 µM
O=[N+]([O-])c1cnc2ccc(N3CCC(c4ccccc4)CC3)nn12 [Compound 26]	> 64 µM

Field: next compound
**Q:** Which IC50 value belongs to c1cn2nc(N3CCCCC3)ccc2n1 [Compound 31] ?
**A:** > 64 µM
